# Test system: OVCAR-8
# test.name: NCI tumour cell line growth inhibition, 48 h
Calls of active or inactive are those of the source. No stated cut-off is given here; in the data, active = GI50 up to about 1.1 µM and inactive = higher. *1 amine or outer side, *2 acyl side, *3 side chain or, on linkers, in order; H or OH if unused. Where a SMILES comes first, the peptide text is derived from it. Bridges are numbered along the chain shown (N, C = ends). [ ]: non-standard residue; d: D form. The star is where a group is joined. ξ: configuration not given here. ξOrn(4,5-diOH) = O=C(C(CC(O)C(O)N[*:3])N[*:1])[*:2]; ξhTyr(βξ-OH,γξ-OH) = NC(C(=O)O)C(O)C(O)c1ccc(O)cc1; ξPro(3ξ-OH,4ξ-Me) = CC1CNC(C(=O)O)C1O; X55 = CCCCC/C=C/C/C=C\CCCCCCCC(=O)*; Hyp = O=C(O)[CH]1C[CH](O)CN1
Lab note: assign the record to one of active, inactive

Ask: Would you mind telling me which call this test gave Cc1cc(S(N)(=O)=O)c(SCc2nc(N)nc(N(C)C)n2)cc1Cl ?
Reply: inactive

Ask: Next record, please: CC1(C)OC2CC3COC(=O)C3CC2O1 (stereo not drawn)
Reply: inactive

Ask: Next record, please: CC(C)(Cc1ccccc1)Cc1cc(O)ccc1O
Reply: inactive

Ask: Next record, please: OCC(Cn1cncn1)(c1ccc(F)cc1F)n1cncn1 (stereo not drawn)
Reply: inactive

Ask: Next record, please: COc1cc2cc(C(=O)N3CC(CCl)c4c3cc(N)c3ccccc43)[nH]c2cc1OCCN(C)C (stereo not drawn)
Reply: active

Ask: Next record, please: CCOC(=O)c1c(NC(=O)Nc2ccccc2)c(C(N)=O)c2n1CCCCC2
Reply: inactive

Ask: Next record, please: CCCCC/C=C/C/C=C\CCCCCCCC(=O)NC1CC(O)C(O)NC(=O)C2C(O)C(C)CN2C(=O)C(C(C)O)NC(=O)C(C(O)C(O)c2ccc(O)cc2)NC(=O)C2CC(O)CN2C(=O)C(C(C)O)NC1=O (stereo not drawn) (X55-[ξOrn(4,5-diOH)]T[Hyp][ξhTyr(βξ-OH,γξ-OH)]T[ξPro(3ξ-OH,4ξ-Me)]; lactam 1-C; configuration not given here)
Reply: inactive

Ask: Next record, please: NC1NCCC(=O)N1CCc1c[nH]c2ccccc12 (stereo not drawn)
Reply: inactive

* * *

# System: UO-31
# test.name: NCI tumour cell line growth inhibition, 48 h
The source made the active and inactive calls. Cut-off read from the data, not from the text of the source: active = GI50 up to about 1.1 µM and inactive = higher.
readout: GI50

Ask: Give its GI50 value. Item: CCOC(=O)c1nc2ccccc2nc1Nc1ccc(C(=O)OC)s1
Reply: > 100 µM (inactive)

Ask: Next record, please: Cc1cccc(NC(=O)CC2C(=O)Nc3ccccc3S2(=O)=O)c1C (configuration not stated)
Reply: 20.9 µM (inactive)

Ask: Next record, please: Cc1ccc(S(=O)(=O)OCC23CCC(C2)C2CC23)cc1 (configuration not stated)
Reply: > 100 µM (inactive)

Ask: Next record, please: OCC1OC(n2cnc3cccnc32)CC1O (configuration not stated)
Reply: > 100 µM (inactive)

Ask: Next record, please: Cc1cn(C(C)OCCN2C(=O)c3ccccc3C2=O)c(=O)[nH]c1=O (configuration not stated)
Reply: > 100 µM (inactive)

Ask: Next record, please: CC(C)COC1Sc2ccccc2S1
Reply: 15.5 µM (inactive)

Ask: Next record, please: Cc1cc(O)nc(/N=C(\N)Nc2ccc(Cl)cc2)n1
Reply: > 100 µM (inactive)

Ask: Next record, please: CCOC(=O)c1ccc(Nc2nc3cc(C(F)(F)F)ccc3nc2C(=O)OCC)cc1
Reply: > 100 µM (inactive)

Ask: Next record, please: C#CCNC(=O)N(CC#C)N=O
Reply: > 100 µM (inactive)

Ask: Next record, please: CC1=NNC(=O)C1C(CC(=O)c1c[nH]c2ccccc12)C(=O)O (configuration not stated)
Reply: 64.3 µM (inactive)

Ask: Next record, please: Cc1ccc(S(=O)(=O)NC(=O)NCCc2ccccc2)cc1
Reply: 51.8 µM (inactive)

Ask: Next record, please: NC(=O)CNC(=O)[C@@H]1C[C@@H](OCCC(=O)O)CN1C(=O)OCc1ccccc1
Reply: > 100 µM (inactive)

* * *

# System: U-251
# test.name: NCI tumour cell line growth inhibition, 48 h
Activity calls are given as the source filed them. Cut-off read from the data, not from the text of the source: active = GI50 up to about 1.1 µM and inactive = higher.
Exercise: for every item that follows, state its recorded GI50.

Ask: Give its GI50 value. Item: C[C@]12CC[C@H]3[C@@H](CC=C4C[C@@H](N5CCCC5)CC[C@@]43C)[C@@H]1C[C@H](N1CCOCC1)[C@@H]2O
Reply: > 100 µM (inactive)

Ask: Next record, please: N#Cc1ccc(-c2nc3cc(Cl)ccc3[nH]2)cc1
Reply: 61.9 µM (inactive)

Ask: Next record, please: CCOC(=N)/C(=C1\OC(=N)C(c2ccc(Cl)cc2)=C1O)c1ccc(Cl)cc1
Reply: 16.8 µM (inactive)

Ask: Next record, please: CC(C)=NN/C(=N\c1ccc(Cl)cc1)NS(=O)(=O)c1cc(Cl)c(Oc2ccc([N+](=O)[O-])cc2Cl)c(Cl)c1
Reply: > 100 µM (inactive)

Ask: Next record, please: O=c1cc(NNc2cccc(F)c2)[nH]c(=S)[nH]1
Reply: 54.6 µM (inactive)

Ask: Next record, please: O=C1CC2OCC=C3CN4CCC56c7ccccc7N1C5C2C3CC46O (stereo not given)
Reply: > 100 µM (inactive)

Ask: Next record, please: N/N=C1/C(=N/O)CCc2nonc21
Reply: > 100 µM (inactive)

Ask: Next record, please: C=C(C)C(CC=C(C)C)Cc1c(O)cc(OC)c2c1OC(c1ccc(O)cc1O)C(O)C2=O (stereo not given)
Reply: 14.5 µM (inactive)

Ask: Next record, please: OCC(Cn1cncn1)(c1ccc(F)cc1F)n1cncn1 (stereo not given)
Reply: > 100 µM (inactive)

Ask: Next record, please: CC(NC(=O)C(N)CC(=O)O)C(=O)OC12CC3CC(CC(C3)C1)C2 (stereo not given)
Reply: > 100 µM (inactive)

* * *

# Test system: SK-MEL-28
# test.name: NCI tumour cell line growth inhibition, 48 h
The source made the active and inactive calls. No stated cut-off is given here; in the data, active = GI50 up to about 1.1 µM and inactive = higher. Where a SMILES comes first, the peptide text is derived from it. Bridges are numbered along the chain shown (N, C = ends). [ ]: non-standard residue; d: D form. The star is where a group is joined. ξ: configuration not given here. ξNMePhe(4-NMe2) = CNC(Cc1ccc(N(C)C)cc1)C(=O)O; Picolinoyl(3-OH) = O=C(c1ncccc1O)*; ξPip(4-oxo) = O=C1CCNC(C(=O)O)C1; Phg = N[CH](C(=O)O)c1ccccc1; Abu = CC[CH](N)C(=O)O
Exercise: for every item that follows, state its recorded GI50.

Ask: Give its GI50 value. Item: C=CCOCn1cc(C)c(=O)[nH]c1=O
Reply: > 100 µM (inactive)

Ask: Next record, please: O=C(NC(=S)Nc1ccc([N+](=O)[O-])cc1)c1ccc2c(c1)Sc1ccccc1O2
Reply: > 100 µM (inactive)

Ask: Next record, please: CCOc1cc(-c2nc3cc(F)ccc3s2)ccc1O
Reply: 27.6 µM (inactive)

Ask: Next record, please: c1ccc(CNC2CC(NCc3ccccn3)CC(NCc3ccccn3)C2)nc1 (stereo not given)
Reply: 3.08 µM (inactive)

Ask: Next record, please: CC1=C/C(O)CC(=O)Cc2nc(co2)C(=O)N2CCC=C2C(=O)OC(C(C)C)C(C)/C=C/C(=O)NC\C=C\1.CCC1NC(=O)C(NC(=O)c2ncccc2O)C(C)OC(=O)C(c2ccccc2)NC(=O)C2CC(=O)CCN2C(=O)C(Cc2ccc(N(C)C)cc2)N(C)C(=O)C2CCCN2C1=O (stereo not given) ({Picolinoyl(3-OH)}-T[Abu]P[ξNMePhe(4-NMe2)][ξPip(4-oxo)][Phg]; ester 1-C; configuration not given here)
Reply: 13.7 µM (inactive)

Ask: Next record, please: C(=C\c1ccccc1)/C=N/c1nc2cc3sc(/N=C/C=C/c4ccccc4)nc3cc2s1
Reply: > 100 µM (inactive)

Ask: Next record, please: c1ccc2c(c1)SCCCS2
Reply: > 100 µM (inactive)

Ask: Next record, please: OCC1CCCCCCCCCCC12SCCCS2 (stereo not given)
Reply: > 100 µM (inactive)

Ask: Next record, please: CCOP(=O)(COCCn1nc(Br)c(=O)[nH]c1=O)OCC
Reply: > 100 µM (inactive)

Ask: Next record, please: c1cc2c(cc1NC1=NCCO1)OCO2
Reply: > 100 µM (inactive)

Ask: Next record, please: CCN1C[C@]2(C)CC[C@H](O)C34C1C(C[C@@H]32)[C@@]1(O)CC[C@H]2C[C@@H]4[C@@H]1[C@H]2O
Reply: > 100 µM (inactive)

Ask: Next record, please: C=Cc1nc2c(Cl)ncnc2n1Cc1ccccc1
Reply: 3.1 µM (inactive)

Ask: Next record, please: C[C@@H]1C[C@]2(C[C@@H](C)C3[C@@H](CC4(C)[C@@H]5CCC6C(C)(C)OC(=O)C=C[C@]67C[C@@]5(CC[C@]34C)OO7)O2)OC1=O (stereo not given in full)
Reply: 66.7 µM (inactive)

Ask: Next record, please: NCCCNCc1c2ccccc2c(CNCCCN)c2ccccc12
Reply: > 10 µM (inactive)

Ask: Next record, please: CC(NC1CCCC[C@H]1O)c1ccccc1 (stereo not given in full)
Reply: > 100 µM (inactive)

Ask: Next record, please: O=c1[nH]c(-c2ccccc2)nc2ccc(Cl)cc12
Reply: 23.4 µM (inactive)

Ask: Next record, please: OC1(c2ccc(Cl)cc2)c2ccccc2C2=NCc3ccccc3CN21 (stereo not given)
Reply: 2.75 µM (inactive)

Ask: Next record, please: Cc1cccc(C(O)c2ccccn2)c1O (stereo not given)
Reply: > 100 µM (inactive)

Ask: Next record, please: COC(=O)c1ccccc1CC1Cc2c(C)ccc(C)c2C1=O (stereo not given)
Reply: 48 µM (inactive)

Ask: Next record, please: Cc1cccc(NC(=O)CC2C(=O)Nc3ccccc3S2(=O)=O)c1C (stereo not given)
Reply: 77.6 µM (inactive)
